B1: tRNA (parent)
chain: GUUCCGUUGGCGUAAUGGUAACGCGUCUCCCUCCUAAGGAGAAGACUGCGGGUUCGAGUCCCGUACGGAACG

# Variants of: B1
# Protocol Details: yeast fitness relative to wild type (ratio to wild type); higher = fitter; tRNA-Arg(CCU), competitive growth, 37 C, YPD
Variants at the floor of the assay were thinned out.
Metric: yeast fitness
Please state the value as a number alone, without comment.

{"Mutation": "G6C U16G C46A", "yeast fitness": 0.599}

Quote yeast fitness reported for U2A G12A A21C please.
0.515

Answer with the recorded yeast fitness of A20C A40C G48C only.
0.719

Provide measured yeast fitness value, entry: U3G A65U
0.855

Attribution: the RNAGym collection of RNA variant scans (doi:10.1126/science.aae0568)
